# test.system: GABA transporter 4 (Mus musculus, UniProt P31650)
# Sequence (P31650 whole entry): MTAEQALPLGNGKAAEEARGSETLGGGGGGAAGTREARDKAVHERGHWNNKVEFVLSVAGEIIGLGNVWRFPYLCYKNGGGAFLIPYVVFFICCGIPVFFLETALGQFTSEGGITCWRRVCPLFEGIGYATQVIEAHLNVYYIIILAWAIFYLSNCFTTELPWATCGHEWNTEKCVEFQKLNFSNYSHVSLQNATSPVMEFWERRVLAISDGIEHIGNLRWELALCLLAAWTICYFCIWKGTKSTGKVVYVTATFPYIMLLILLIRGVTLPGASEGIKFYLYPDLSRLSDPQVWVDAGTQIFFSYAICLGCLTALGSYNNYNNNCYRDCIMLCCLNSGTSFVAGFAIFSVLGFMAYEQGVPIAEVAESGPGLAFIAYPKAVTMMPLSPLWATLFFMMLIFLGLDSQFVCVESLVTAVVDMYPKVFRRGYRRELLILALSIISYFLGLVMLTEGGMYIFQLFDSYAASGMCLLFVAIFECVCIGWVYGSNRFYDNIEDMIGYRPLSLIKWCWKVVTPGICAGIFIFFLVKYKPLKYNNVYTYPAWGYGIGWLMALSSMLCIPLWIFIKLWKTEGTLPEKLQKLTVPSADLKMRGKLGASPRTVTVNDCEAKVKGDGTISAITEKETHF
# method.description: Inhibition of mouse GAT-4 expressed in HEK293 cells assessed as decrease in [3H]GABA uptake preincubated for 25 mins followed by [3H]GABA addition and measured after 4 mins by scintillation counting analysis
pIC50: −log10 of the molar value.
metric: pIC50

[[record]]
compound = "O=C(O)C1CCCN(CCO/N=C/c2sccc2-c2ccc(Cl)cc2Cl)C1 (racemic)"
reported_measurement = 4.14

[[record]]
compound = "O=C(O)C1CCCN(CCO/N=C/c2cc(F)ccc2-c2ccc(Cl)cc2Cl)C1 (racemic)"
reported_measurement = 4.49

[[record]]
compound = "O=C(O)[C@@H]1CCCN(CCO/N=C/c2ccccc2-c2ccc(Cl)cc2Cl)C1"
reported_measurement = 4.20

[[record]]
compound = "O=C(O)C1CCCN(CCO/N=C/c2ccccc2-c2ccc(Cl)cc2Cl)C1 (racemic)"
reported_measurement = 4.15


====

Quick list: Activity per entry.
# test.system: UniProt P31648
# method.description: Inhibition of mouse GAT-1 assessed as percentage of remaining specific binding of NO711 at 1 uM after 4 hrs by LC-ESI-MS/ms analysis relative to control
metric: Activity (%)

[[record]]
compound = "O=Cc1cccnc1-c1cccc(F)c1"
reported_measurement = 87

[[record]]
compound = "COc1ccc(/C=N/OCCN2CCCC(C(=O)O)C2)cc1 (racemic)"
reported_measurement = 74

[[record]]
compound = "O=C(O)C1CCCN(CCO/N=C/c2ccc3ccccc3c2)C1 (racemic)"
reported_measurement = 61

[[record]]
compound = "O=C(O)C1CCCN(CCO/N=C/c2ccccc2-c2ccccc2)C1 (racemic)"
reported_measurement = 47

[[record]]
compound = "Cc1noc(-c2ccccc2/C=N/OCCN2CCCC(C(=O)O)C2)n1 (racemic)"
reported_measurement = 33

[[record]]
compound = "O=C(O)C1CCCN(CCO/N=C/c2ccc3c(c2)Cc2ccccc2-3)C1 (racemic)"
reported_measurement = 37

[[record]]
compound = "O=Cc1ccccc1-c1cc(F)ccc1F"
reported_measurement = 88

[[record]]
compound = "O=C(O)C1CCCN(CCO/N=C/C(c2ccccc2)c2ccccc2)C1 (racemic)"
reported_measurement = 41

[[record]]
compound = "O=C(O)C1CCCN(CCO/N=C/c2cc3c(cc2-c2ccccc2Cl)OCO3)C1 (racemic)"
reported_measurement = 19


====

We begin with a simple list: items and their reported Activity.
# test.system: Sodium- and chloride-dependent GABA transporter 1 (Mus musculus) (UniProt P31648)
# method.description: Inhibition of mouse GAT-1 assessed as percentage of remaining specific binding of NO711 at 1 uM after 4 hrs by LC-ESI-MS/ms analysis relative to control
metric: Activity (%)

[[record]]
molecule = "O=C(O)C1CCCN(CCO/N=C/c2cccnc2-c2cccc(Cl)c2)C1 (racemic)"
unit_abbrev = "%"
reported_measurement = 32

[[record]]
molecule = "O=Cc1ccc(O)cc1"
unit_abbrev = "%"
reported_measurement = 89

[[record]]
molecule = "O=C(O)C1CCCN(CCO/N=C/c2cccnc2-c2ccc(Cl)cc2Cl)C1 (racemic)"
unit_abbrev = "%"
reported_measurement = 31

[[record]]
molecule = "O=C(O)C1CCCN(CCO/N=C/c2ccccc2[N+](=O)[O-])C1 (racemic)"
unit_abbrev = "%"
reported_measurement = 60

[[record]]
molecule = "O=C(O)C1CCCN(CCO/N=C/c2cc(F)ccc2-c2ccccc2F)C1 (racemic)"
unit_abbrev = "%"
reported_measurement = 42

[[record]]
molecule = "O=C(O)C1CCCN(CCO/N=C/c2ccccc2-c2ccco2)C1 (racemic)"
unit_abbrev = "%"
reported_measurement = 32

[[record]]
molecule = "O=Cc1ccccc1-c1cccc2ccccc12"
unit_abbrev = "%"
reported_measurement = 85

[[record]]
molecule = "O=C(O)C1CCCN(CCO/N=C/c2ccccc2Oc2ccccc2)C1 (racemic)"
unit_abbrev = "%"
reported_measurement = 37

[[record]]
molecule = "O=Cc1ccc(Br)nc1"
unit_abbrev = "%"
reported_measurement = 92

[[record]]
molecule = "O=Cc1sccc1-c1ccc(F)cc1Cl"
unit_abbrev = "%"
reported_measurement = 86


src = ChEMBL document CHEMBL4400545
